Quick reference: DC50 of the listed items.
system_tested: KRAS (G12D) (Homo sapiens, UniProt P01116, G12D)
Construct: in-cell western with KRAS G12D antibody after 24 h
Sequence (P01116 1-188 isoform P01116-2 G12D): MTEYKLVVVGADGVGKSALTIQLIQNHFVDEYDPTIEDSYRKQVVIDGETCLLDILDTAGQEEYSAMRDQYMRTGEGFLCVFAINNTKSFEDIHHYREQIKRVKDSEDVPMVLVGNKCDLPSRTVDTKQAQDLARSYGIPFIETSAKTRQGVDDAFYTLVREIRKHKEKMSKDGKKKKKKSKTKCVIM
test_summary: KRAS (G12D) cellular degradation assay in AsPC-1 cells
Format: cell-based
conditions: 24 hours, antibody fluorescence (Odyssey CLX), DC50 half-maximal degradation concentration
quantity_measured: DC50

mol: CCn1nccc1-c1ccc([C@H](CO)NC(=O)[C@@H]2C[C@@H](O)CN2C(=O)[C@H](C(C)C)n2cc(-c3ccc(COc4c(-c5c(C)c(F)cc6[nH]ncc56)c(C(F)(F)F)cc5c(N6C[C@@H]7C[C@H]6CN7)nc(OC[C@H](C)OC)nc45)cc3)nn2)cc1
reported_measurement: < 10 nM

mol: CCn1nccc1-c1ccc([C@@H](NC(=O)[C@@H]2C[C@@H](O)CN2C(=O)[C@H](C(C)C)n2cc(-c3ccc(COc4c(-c5c(C)c(F)cc6[nH]ncc56)c(C5CCC5)cc5c(N6C[C@@H]7C[C@H]6CN7)nc(OC[C@H](C)OC)nc45)cc3)nn2)[C@@H](C)O)cc1
reported_measurement: 10 to 100 nM
